B1: NLV3 TCR beta chain (CDR3β only) (parent)
chain: ASSPTGGSPSPLH

# Variants of: B1
# assayNotes: T-Switch: Jurkat TCRβ−/− cells expressing a CDR3 saturation-mutagenesis library, stained with two peptide-HLA-A*02:01 tetramers (original and novel peptide) plus anti-CD3, FACS-sorted into four gates, gDNA sequenced
# measurementParameters: with both tetramers (double-negative gate, binds neither): HLA-A*02:01 with … and with …, tetramers 1 µg/mL, 30 min on ice, SP, DP and SW gates expanded about 10 days between rounds ('two to three rounds of selection' in the Methods), gate DN: OPPOSITE: higher = more of the variant in the gate that binds neither peptide = LESS binding (or no expression; inferred). Fold enrichment of the CDR3 variant in one FACS gate of a two-tetram, unresolved parent, parent is a CDR3 fragment, scale: fold enrichment, numbering: sequential-on-construct, sequence starts at 1
Binary call on enrichment: TRUE from 0.7 upward, FALSE beneath that.

# check: enrichment of […] (CDR3 as printed); S3W derived by comparing it with the table's wild-type CDR3 ASSPTGGSPSPLH is greater than or equal to 0.7
TRUE

# check: enrichment of […] (CDR3 as printed); P11V derived by comparing it with the table's wild-type CDR3 ASSPTGGSPSPLH is greater than or equal to 0.7
TRUE

# check: enrichment of […] (CDR3 as printed); P11D derived by comparing it with the table's wild-type CDR3 ASSPTGGSPSPLH is greater than or equal to 0.7
FALSE

# check: enrichment of […] (CDR3 as printed); S3D derived by comparing it with the table's wild-type CDR3 ASSPTGGSPSPLH is greater than or equal to 0.7
FALSE

# check: enrichment of […] (CDR3 as printed); H13I derived by comparing it with the table's wild-type CDR3 ASSPTGGSPSPLH is greater than or equal to 0.7
FALSE

# check: enrichment of […] (CDR3 as printed); S2C derived by comparing it with the table's wild-type CDR3 ASSPTGGSPSPLH is greater than or equal to 0.7
TRUE

# check: enrichment of […] (CDR3 as printed); G7S derived by comparing it with the table's wild-type CDR3 ASSPTGGSPSPLH is greater than or equal to 0.7
TRUE

# check: enrichment of […] (CDR3 as printed); S3H derived by comparing it with the table's wild-type CDR3 ASSPTGGSPSPLH is greater than or equal to 0.7
TRUE

# check: enrichment of […] (CDR3 as printed); S8T derived by comparing it with the table's wild-type CDR3 ASSPTGGSPSPLH is greater than or equal to 0.7
TRUE

# check: enrichment of […] (CDR3 as printed); A1W derived by comparing it with the table's wild-type CDR3 ASSPTGGSPSPLH is greater than or equal to 0.7
TRUE

# check: enrichment of […] (CDR3 as printed); L12Y derived by comparing it with the table's wild-type CDR3 ASSPTGGSPSPLH is greater than or equal to 0.7
TRUE

Every entry's value here was drawn from paper PMC13397619.
